tested on: HCT-15 colon; test: NCI-60 one-dose screen, 48 h; conditions: 10 µM unless noted
Compounds without any hit were thinned out: in the full panel of roughly 83,000, 20% have a hit. Activity calls are given as the source filed them. How the source made its calls: active means growth percent below 10; inactive means the rest.
Parameter call: string, one of 1 = active, -1 = inactive

Before answering, review these 5 worked examples.
Nc1nc(-c2cccc([N+](=O)[O-])c2)c(N=Nc2ccccc2)s1
-1
C=CCn1c(SCC(=O)Nc2ccc(C(=O)/C=C/c3ccc(Br)cc3)cc2)nnc1-c1c[nH]c2ccccc12
-1
COc1cc(OC)c(S(N)(=O)=O)cc1C(C)=O
-1
CCC(NC(c1cc2cccc3ccc4cccc1c4c32)c1nnnn1C(C)(C)C)C1CCCCC1 (stereo not drawn)
-1
O=S(=O)(Nc1ccc(I)cc1Cl)c1ccc(-c2cnc(C3CC3)o2)cc1
-1

Called result for `NS(=O)(=O)c1ccc(Nc2cc(-c3ccccc3)nc(SCC(=O)c3ccccc3)n2)cc1`
-1

Called result for `COc1ccccc1C(=O)Nc1cccc2c1C(=O)C(=O)C=C2`
-1

// return assay outcome for `COc1ccc(COc2ccc(/C=C3\C(=O)Nc4ccccc43)cc2OC)cc1`
-1

Could you kindly confirm the outcome this assay logged for `C=C1CC[C@@H]2[C@](C)(CO)[C@H](O)CC[C@@]2(C)[C@@H]1C/C(O)=C1\CCOC1=O` ?
-1

What is the recorded call for this compound in the test? `Cc1nn(-c2ccccc2)c2ncnc(N/N=C/c3cccc(O)c3)c12`
-1

* * *

test system: NCI-H23 lung; assay: NCI-60 one-dose screen, 48 h (100 = growth as untreated, 0 = no growth, -100 = all killed); settings: 10 µM unless noted
Compounds without any hit were thinned out: in the full panel of roughly 83,000, 20% have a hit.
readoutKind: growth (%)
Output spec: scalar in %, unitless text.

Past entries and their recorded results:
CN(C)C(=O)c1cc(-c2ccc3ncnc(NCc4ccccc4)c3c2)cnc1N
91.6
COc1ccc(COc2ccc(/C=C3\C(=O)Nc4ccccc43)cc2OC)cc1
103
CNC(=O)c1cc(N2CCc3cc(NC(=O)Nc4ccc(Cl)c(C(F)(F)F)c4)ccc32)ccn1
56.1
Cc1nn(-c2ccccc2)c2ncnc(N/N=C/c3cccc(O)c3)c12
61.3
Cc1cccc(/C=C/C(=O)Nc2ncc(Cc3cccc(C)c3)s2)c1
30.4

Need growth of `COc1ccc(C(=O)CSc2nc3c(c(Nc4ccc(S(N)(=O)=O)cc4)n2)CCCC3)cc1` , thanks.
88.1

Requested read-out: growth. Entry: `O=C(CN1CCN(c2cc(=O)n(-c3ccccc3)c3ccccc23)CC1)Nc1nc(-c2ccccc2)cs1`
60.8

What does the data say about its growth? Entry: CC(=O)C1=C(C)NC(NN)=NC1c1cccc(Cl)c1 (stereo unspecified)
99.9

What value of growth has been reported for the following molecule? `Cc1ccc(N2C(=O)/C(=C/C=C/c3ccco3)SC2=S)cc1`
98.9

// lookup growth for COc1c(N2CC3CCCNC3C2)c(F)cc2c(=O)c(C(=O)N/N=C/c3c[nH]c4ccccc34)cn(C3CC3)c12 (stereo unspecified)
102

Query (molecule): `CC1(C)[C@@H](O)CC[C@]2(C)[C@H]3CC[C@@H]4[C@H]5[C@H](C(=O)/C=C\c6ccccn6)CC[C@]5(O)CC[C@@]4(C)[C@]3(C)CC[C@@H]12` ; field requested: growth
31.7
